system: Bacillus subtilis (KCTC 3068); test: Antimicrobial activity, broth microdilution MIC; format: cell-based; settings: 2 × 10^6 CFU/mL in 1% peptone, 37 °C, 18–22 h, 100% inhibition of growth, performed three times
value-type: MIC Bacillus subtilis (KCTC 3068)

{"columns": ["smiles-notation", "result"],
 "data": [
  ["N=C(N)NCCCN(CCCNC(=N)N)c1nc(Cl)nc(NCCNc2nc(NCCNc3nc(N)nc(NCCC(c4ccccc4)c4ccccc4)n3)nc(N(CCCNC(=N)N)CCCNC(=N)N)n2)n1", "4 [3.8] μg/mL"],
  ["NCCCN(CCCN)c1nc(N)nc(NCCNc2nc(NCCNc3nc(NCCNc4nc(NCCNc5nc(Cl)nc(N(CCCN)CCCN)n5)nc(N(CCCN)CCCN)n4)nc(N(CCCN)CCCN)n3)nc(N(CCCN)CCCN)n2)n1", "4 [3.3] μg/mL"],
  ["NCCCN(CCCN)c1nc(N)nc(NCCNc2nc(NCCNc3nc(Cl)nc(N(Cc4ccccc4)Cc4ccccc4)n3)nc(N(CCCN)CCCN)n2)n1", "2 [2.3] μg/mL"],
  ["NCCCN(CCCN)c1nc(N)nc(NCCNc2nc(Cl)nc(N(Cc3ccccc3)Cc3ccccc3)n2)n1", "2 [3.4] μg/mL"],
  ["N=C(N)NCCCN(CCCNC(=N)N)c1nc(N)nc(NCCNc2nc(Cl)nc(N(Cc3ccccc3)Cc3ccccc3)n2)n1", "2 [3] μg/mL"],
  ["N=C(N)NCCCN(CCCNC(=N)N)c1nc(N)nc(NCCNc2nc(NCCNc3nc(Cl)nc(N(CCCNC(=N)N)CCCNC(=N)N)n3)nc(N(Cc3ccccc3)Cc3ccccc3)n2)n1", "2 [1.9] μg/mL"]
]}
